# Test system: Hep 3B2
# run.description: Inhibition of luciferase expression in human Hep3B cells after 16 hrs under hypoxic condition
# Format: functional, cell-based
property: pIC50
Reminder that pIC50 means the negative base-10 logarithm of the concentration expressed in mol/L.

Query: Identify pIC50 associated with the compound CC(C)(O)C1Cc2cc3cc(-c4cc(O)cc(O)c4)oc3cc2O1 (stereo unspecified)
Response: 8.75

###

# Test system: Hep 3B2
# run.description: Effect on luciferase activity in human Hep3B cells exposed to hypoxic condition for 16 hrs
# Format: functional, cell-based
property: pEC50
Reminder that pEC50 means the negative base-10 logarithm of the concentration expressed in mol/L.

Query: // fetch pEC50; item: CC(C)(O)C1Cc2cc3cc(-c4cc(O)cc(O)c4)oc3cc2O1 (stereo unspecified) ; system: Hep 3B2
Response: 9.00

###

# tested.on: Hypoxia inducible factors; HIF-1-alpha, HIF-2-alpha (Homo sapiens, UniProt Q16665+Q99814)
# run.description: Inhibition of hypoxia-induced HIF1 activation in human Hep3B cells by pGL3-HRE-luciferase reporter gene assay
# Assay type: cell-based
# test.settings: hep 3b2
Overview of reported IC50 across a group of compounds:
Expressed in µM, but write only the number.

Check out these entries, answers already filled in.
Query: Identify IC50 associated with the compound `CC(C)=CCc1c(O)ccc(C(=O)[C@H]2[C@@H](c3c(O)ccc(C(=O)/C=C/c4ccc(O)cc4O)c3O)C=C(C)C[C@@H]2c2ccc(O)cc2O)c1O`
Response: 8.55

Query: Identify IC50 associated with the compound `CC(C)=CCC/C(C)=C\CC/C(C)=C\Cc1c(O)cc(O)cc1-c1cc2ccc(O)cc2o1`
Response: 6.07

API: the following record is the query input.
Query: Identify IC50 associated with the compound `CC(C)=CC[C@@]12Oc3cc(O)c([C@H]4C=C(C)C[C@H](c5ccc(O)cc5O)[C@H]4C(=O)c4ccc(O)cc4O)c(O)c3C(=O)[C@]1(O)Oc1cc(O)ccc12`
Response: 8.75

###

# tested.on: Hypoxia inducible factors; HIF-1-alpha, HIF-2-alpha (Homo sapiens, UniProt Q16665+Q99814)
# run.description: Inhibition of hypoxia-induced HIF1 activation in human Hep3B cells by pGL3-HRE-luciferase reporter gene assay
# Format: cell-based
# test.settings: hep 3b2
Overview of reported IC50 across a group of molecules:
Expressed in µM, but write only the number.

Check out these entries, answers already filled in.
Query: Identify IC50 associated with the molecule `CC(C)=CCC/C(C)=C/Cc1c(O)cc(O)cc1-c1cc2ccc(O)cc2o1`
Response: 6.27

Query: Identify IC50 associated with the molecule `CC(C)=CCC/C(C)=C/Cc1c(O)ccc2cc(-c3cc(O)cc(O)c3CC=C(C)C)oc12`
Response: 8.76

Query: Identify IC50 associated with the molecule `CC(C)=CC[C@]12Oc3cc(O)c([C@H]4C=C(C)C[C@H](c5ccc(O)cc5O)[C@H]4C(=O)c4ccc(O)cc4O)c(O)c3C(=O)[C@@]1(O)Oc1cc(O)ccc12`
Response: 8.26

Further cases:
Query: Identify IC50 associated with the molecule `CC(C)=CCc1c(O)ccc(C(=O)[C@H]2[C@@H](c3c(O)ccc(C(=O)/C=C/c4ccc(O)cc4)c3O)C=C(C)C[C@@H]2c2ccc(O)cc2)c1O`
Response: 9.54

###

Overview of reported IC50 across a group of compounds:
# tested.on: Hypoxia inducible factors; HIF-1-alpha, HIF-2-alpha (Homo sapiens, UniProt Q16665+Q99814)
# run.description: Inhibition of hypoxia-induced HIF1 activation in human Hep3B cells by pGL3-HRE-luciferase reporter gene assay
# Type: cell-based
# test.settings: hep 3b2

Check out these entries, answers already filled in.
Query: Identify IC50 associated with the compound `COc1c(O)cc2oc(-c3cc(O)cc(O)c3)cc2c1CC(=O)C(C)C`
Response: > 30 µM

Query: Identify IC50 associated with the compound `CO[C@H]1/C=C\C=C(/C)C(=O)NC2=CC(=O)C(NCCN(C)C)=C(C[C@@H](C)C[C@H](OC)[C@H](O)[C@@H](C)/C=C(\C)[C@@H]1OC(N)=O)C2=O`
Response: > 30 µM

API: the following record is the query input.
Query: Identify IC50 associated with the compound `CC1(C)Oc2cc3oc(-c4cc(O)cc(O)c4)cc3cc2C[C@H]1O`
Response: > 30 µM

Values compiled from ChEMBL document CHEMBL1151479.
